Values were extracted from patent US20090247579A1.

- Test system: E1 (MLH1+ve, MMR proficient)
- Experiment Summary: Modified MTT assay, E1 line (A2780/cp70 + chromosome 3, MLH1 +ve)
- Type: cell-based
- Applied Conditions: Homo sapiens, read-out: A1 or E1 MLH1 +ve MMR proficient IC50
Quantity: pIC50
Notebook: values listed as pIC50 are -log10 of the concentration (mol/L).

[ask] E1 (MLH1+ve, MMR proficient) / pIC50 / CC[n+]1ccccc1/C=C1\Sc2oc3ccccc3c2N1C.[I-] : value?
[reply] 6.03

====

- Test system: DU145
- Experiment Summary: Cancer cell line panel, DU145 (prostate)
- Assay type: cell-based
- Applied Conditions: read-out: Cisplatin
Quantity: IC50 (nM)
Entry rule: numbers only, all in nM.

[ask] Item N.N.[Cl][Pt][Cl] [Cisplatin, reference compound] has what recorded IC50?
[reply] 1680

====

- Test system: COLO320DM
- Experiment Summary: Modified MTT assay, colon panel COLO320DM
- Assay type: cell-based
- Applied Conditions: Homo sapiens, COLO 320DM, MMR proficient, p53 mut, read-out: MMR201 IC50
Quantity: pIC50
pIC50 (log units): -log10 of the concentration in mol/L.

[ask] Can you look up the measured pIC50 of CC[n+]1c(/C=C2\Sc3oc4ccccc4c3N2C)ccc2cc(C)ccc21.[I-] [MMR201] for me?
[reply] 6.23

====

- Test system: A1 (MLH1+ve, MMR proficient)
- Experiment Summary: Modified MTT assay, A1 line (A2780/cp70 + chromosome 3, MLH1 +ve)
- Type: cell-based, human
- Applied Conditions: Homo sapiens, A2780/CP70, read-out: A1 or E1 MLH1 +ve MMR proficient IC50
We begin with a simple list: items and their reported pIC50.
By convention, pIC50 is the negative base-10 log of a molar concentration.

The following molecules have reported results that may help.
CC[n+]1c(/C=C2\Sc3oc4ccccc4c3N2C)ccc2cc(C)ccc21.[I-]	6.92
CC[n+]1c(/C=C2\SC=CN2C)ccc2ccccc21.[I-]	5.39
CC[n+]1ccccc1/C=C1\SC=C(C)N1C.[I-]	4.27
CC[n+]1ccccc1/C=C1\SC=CN1C.[I-]	5.55
CC[n+]1c(/C=C2\Sc3oc4ccccc4c3N2C)ccc2ccccc21.[I-]	6.84

Please find the next molecule below.
[ask] Kindly state the measured pIC50 obtained for CC[n+]1c(/C=C2\SC=C(C)N2C)ccc2ccccc21.[I-] with A1 (MLH1+ve, MMR proficient).
[reply] 5.59

====

- Tested on: CALU
- Experiment Summary: Cancer cell line panel, CALU (NSCLC)
- Assay type: cell-based
- Applied Conditions: read-out: MMR201
Quantity: IC50 (nM)
Record the value in nM, omitting the unit from your answer.

[ask] Which IC50 is listed for CC[n+]1c(/C=C2\Sc3oc4ccccc4c3N2C)ccc2cc(C)ccc21.[I-] ?
[reply] 380

====

- Tested on: T84
- Experiment Summary: Modified MTT assay, colon panel T84
- Type: cell-based
- Applied Conditions: read-out: Cisplatin IC50, MMR proficient, p53 ?
Quantity: IC50 (µM)
Could you give me the number in µM? Just the number is fine.

[ask] Would you mind telling me what IC50 value was observed for N.N.[Cl][Pt][Cl] [Cisplatin, reference compound] ?
[reply] 4.23

====

- System: A2 (MLH1−ve, MMR deficient)
- Experiment Summary: Modified MTT assay, A2 line (A2780/cp70 + chromosome 3, MLH1 -ve)
- Type: cell-based, human
- Applied Conditions: A2 line
Quantity: IC50 (µM)
Express it in µM; write the number only.

[ask] // lookup IC50 for N.N.[Cl][Pt][Cl] [Cisplatin, reference compound]
[reply] 1.91
